target: Bcl-2 protein (histag-Bcl-2, UniProtKB P10415) (Homo sapiens, UniProt P10415); construct: His tag; assay: Inhibition of Bcl-2 by the fluorescence polarisation technique; type: binding; settings: fluorescence polarisation, 2 hours incubation; read-out: IC50 (nM) Bcl-2 FP
Sequence (P10415 whole entry): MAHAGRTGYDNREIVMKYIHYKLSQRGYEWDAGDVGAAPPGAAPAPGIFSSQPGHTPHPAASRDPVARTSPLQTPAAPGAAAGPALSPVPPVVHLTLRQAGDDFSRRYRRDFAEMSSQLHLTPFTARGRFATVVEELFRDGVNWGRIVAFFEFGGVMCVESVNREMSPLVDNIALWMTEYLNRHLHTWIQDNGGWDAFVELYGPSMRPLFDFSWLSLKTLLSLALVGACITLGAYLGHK
Structures can show the parent of a compound that is named as a salt.
Kindly state IC50 for each of the entries shown.

For the record O=C(c1cc(-c2cc3c(cc2C(=O)N2Cc4ccccc4C[C@H]2CCN2CCOCC2)OCO3)n2c1CCCC2)N(c1ccccc1)c1ccc(O)cc1 [Example 13, hydrochloride] , what value of IC50 is listed for Bcl-2 protein (histag-Bcl-2, UniProtKB P10415) (Homo sapiens, UniProt P10415)? 5.8 nM

// same read-out, input: CN(C(=O)c1cc(-c2cc3c(cc2C(=O)N2CCc4ccccc4C2)OCO3)n2ccccc12)c1ccc(O)cc1 [Example 83] 35.8 nM

Follow-up entry: CC(C)N(C(=O)c1cc(-c2cc3c(cc2C(=O)N2Cc4ccccc4C[C@H]2C)OCO3)n2c1CNCC2)c1ccc(O)cc1 [Example 80] 299 nM

Would you mind doing CCCCN(C(=O)c1cc(-c2cc3c(cc2C(=O)N2Cc4ccccc4C[C@H]2C)OCO3)n2c1CNCC2)c1ccc(O)cc1 [Example 79] as well? 99.1 nM

What would you report for O=C(c1cc2c(cc1-c1cc(C(=O)N(c3ccccc3)c3ccc(O)cc3)c3n1CCCC3)OCO2)N1CCc2ccccc2C1 [Example 57] ? 21.2 nM

Let us now turn to N#Cc1cccc(N(C(=O)c2cc(-c3cc4c(cc3C(=O)N3Cc5ccccc5C[C@H]3CCN3CCOCC3)OCO4)n3c2CCCC3)c2ccc(O)cc2)c1 [Example 23, hydrochloride] 3.8 nM
